# system tested: Fyn (UniProt P06241)
# Sequence (P06241 whole entry, looked up): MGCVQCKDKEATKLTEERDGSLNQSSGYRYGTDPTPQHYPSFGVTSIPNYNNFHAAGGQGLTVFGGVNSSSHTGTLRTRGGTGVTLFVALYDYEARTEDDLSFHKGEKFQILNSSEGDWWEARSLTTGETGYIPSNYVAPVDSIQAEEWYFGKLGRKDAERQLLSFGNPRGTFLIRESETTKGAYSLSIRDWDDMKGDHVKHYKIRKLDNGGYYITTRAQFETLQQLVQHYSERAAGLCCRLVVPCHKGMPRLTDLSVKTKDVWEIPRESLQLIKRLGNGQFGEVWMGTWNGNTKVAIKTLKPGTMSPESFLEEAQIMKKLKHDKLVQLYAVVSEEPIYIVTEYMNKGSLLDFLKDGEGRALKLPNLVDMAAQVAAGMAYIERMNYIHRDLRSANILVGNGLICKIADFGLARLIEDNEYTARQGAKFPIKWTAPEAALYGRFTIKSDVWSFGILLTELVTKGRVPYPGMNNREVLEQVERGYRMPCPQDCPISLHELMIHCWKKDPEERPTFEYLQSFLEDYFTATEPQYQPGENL
# test details: phosphorylation enrichment, bacterial display (enrichment ratio); higher = better substrate or ligand; peptides without Tyr show the background
endpoint name: phosphorylation enrichment
Give the figure only, with no unit attached.

Known results for sequences:
sequence chain: ENFSEYQEIAV [HEMGN_Y150]
system tested: Fyn (UniProt P06241)
phosphorylation enrichment: 0.586

sequence chain: ISKKHYAGLLF [POLD1_Y809_R808H]
system tested: Fyn (UniProt P06241)
phosphorylation enrichment: 0.42

sequence chain: DASENYFVMDS [TMEM240_Y77_T80M]
system tested: Fyn (UniProt P06241)
phosphorylation enrichment: 0.392

sequence chain: GKLIFYDLRGE [KARS1_Y145]
system tested: Fyn (UniProt P06241)
phosphorylation enrichment: 0.474

sequence chain: YEREQYADRAR [RBM4_Y355]
system tested: Fyn (UniProt P06241)
phosphorylation enrichment: 0.37

[in] Return reported phosphorylation enrichment. Input sequence: IALSKYGRVKW [FGF6_Y186_R191W]
[out] 0.306

[in] Return reported phosphorylation enrichment. Input sequence: HNELFYEAAEH [VANGL1_Y345_E347A_YF]
[out] 1.05

[in] Return reported phosphorylation enrichment. Input sequence: KLGDVYVNVAF [PGK1_Y161_D164V]
[out] 0.645

[in] Return reported phosphorylation enrichment. Input sequence: TTGLIYIGSHD [AASDH_Y870]
[out] 0.375

[in] Return reported phosphorylation enrichment. Input sequence: KIEGVYARDET [RPL35A_Y34]
[out] 0.555

[in] Return reported phosphorylation enrichment. Input sequence: QFRFIYMAVQH [PTPN11_Y515_YF]
[out] 0.939

[in] Return reported phosphorylation enrichment. Input sequence: SNMPTYSGHFS [GRIN2A_Y1224_T1229S]
[out] 1.7

[in] Return reported phosphorylation enrichment. Input sequence: STASGYSDVTD [DTX2_Y425]
[out] 0.447

[in] Return reported phosphorylation enrichment. Input sequence: LQEKSYIKGTS [LCTL_Y331]
[out] 0.616

###

# system tested: Hck (UniProt P08631)
# Sequence (P08631 whole entry, looked up): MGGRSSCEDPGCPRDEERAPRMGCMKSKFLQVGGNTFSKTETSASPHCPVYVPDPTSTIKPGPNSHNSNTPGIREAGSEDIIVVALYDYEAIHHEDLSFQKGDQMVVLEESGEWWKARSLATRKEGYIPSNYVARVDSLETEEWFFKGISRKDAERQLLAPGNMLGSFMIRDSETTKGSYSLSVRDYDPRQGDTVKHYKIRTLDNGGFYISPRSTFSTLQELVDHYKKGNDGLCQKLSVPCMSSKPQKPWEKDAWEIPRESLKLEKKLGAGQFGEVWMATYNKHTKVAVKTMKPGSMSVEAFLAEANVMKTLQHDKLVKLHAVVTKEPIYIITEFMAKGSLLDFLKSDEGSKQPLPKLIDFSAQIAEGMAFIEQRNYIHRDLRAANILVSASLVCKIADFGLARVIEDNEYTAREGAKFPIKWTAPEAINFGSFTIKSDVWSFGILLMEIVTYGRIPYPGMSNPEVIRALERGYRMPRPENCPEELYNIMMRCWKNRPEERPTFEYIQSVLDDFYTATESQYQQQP
# test details: phosphorylation enrichment, bacterial display (enrichment ratio); higher = better substrate or ligand; peptides without Tyr show the background
Response key: true means phosphorylation enrichment >= 0.5; false means phosphorylation enrichment < 0.5.

sequence chain: ARSMEYLAEQK [MST1R_Y1198]
qualitative label: true

[in] Is reported phosphorylation enrichment greater than or equal to 0.5 here: IYRASYYRRGD [LTK_Y676]
[out] true

###

# system tested: SHP2-C SH2
# test details: SH2 binding enrichment of the phosphorylated peptide, bacterial display (enrichment ratio); higher = better substrate or ligand; peptides without Tyr show the background
Entries and their SH2 binding enrichment values follow.
Give the figure only, with no unit attached.

Known results for sequences:
sequence chain: GGSTFYIDTNA [ACTL6A_Y69_P66S_YF]
val: 0.952
--
sequence chain: IFCIQYNIRAF [MYH4_Y820]
val: 1.07
--
sequence chain: ALCHFYKLNII [ETV6_Y402_R399C_YF]
val: 1.06

[in] Return reported SH2 binding enrichment. Input sequence: TVINKYQGKLF [HGD_Y249]
[out] 0.811

[in] Return reported SH2 binding enrichment. Input sequence: KNKNRSKNILP [PTPN11_Y279_Y279S]
[out] 0.39

[in] Return reported SH2 binding enrichment. Input sequence: KQLFAYKMLMA [TMC2_Y209_YF]
[out] 1.07

[in] Return reported SH2 binding enrichment. Input sequence: LAEMNYVHQDL [EPHB1_Y740_R743Q]
[out] 0.923

###

# system tested: c-Src SH2
# test details: SH2 binding enrichment of the phosphorylated peptide, bacterial display (enrichment ratio); higher = better substrate or ligand; peptides without Tyr show the background
Response key: MET means SH2 binding enrichment >= 0.6; NOT MET means SH2 binding enrichment < 0.6.

sequence chain: NYYDTYIKTCL [IQGAP2_Y1445]
qualitative label: NOT MET

sequence chain: RFLERYIYNPE [HLA-DPB1_Y57_R61P]
qualitative label: MET

[in] Is reported SH2 binding enrichment greater than or equal to 0.6 here: SIKDKYLTALY [KCNH2_Y611_V612L]
[out] NOT MET

[in] Is reported SH2 binding enrichment greater than or equal to 0.6 here: YAFQLYDLDPD [CHP2_Y123_R127P]
[out] MET

[in] Is reported SH2 binding enrichment greater than or equal to 0.6 here: FPCSVYVPDEW [INSR_Y1011]
[out] MET

[in] Is reported SH2 binding enrichment greater than or equal to 0.6 here: VKPENYRRPDI [VHL_Y175_L178P]
[out] NOT MET

[in] Is reported SH2 binding enrichment greater than or equal to 0.6 here: VGNPAYRSFSN [IL4R_Y497_A492V]
[out] NOT MET

[in] Is reported SH2 binding enrichment greater than or equal to 0.6 here: RRLEPYGENFN [APOA4_Y310_V307L]
[out] NOT MET

[in] Is reported SH2 binding enrichment greater than or equal to 0.6 here: NNIDFYKNTTN [FGFR2_Y657_K659N_YF]
[out] NOT MET

[in] Is reported SH2 binding enrichment greater than or equal to 0.6 here: PSQRRYLYYYS [PTEN_Y174_V175L]
[out] MET

[in] Is reported SH2 binding enrichment greater than or equal to 0.6 here: SVCPDYDLCSV [SQSTM1_Y148]
[out] MET

[in] Is reported SH2 binding enrichment greater than or equal to 0.6 here: `DLRGIYQKLVI`
[out] MET

[in] Is reported SH2 binding enrichment greater than or equal to 0.6 here: QFLMKYVWSAS [ABCD1_Y337]
[out] NOT MET

###

Entries and their phosphorylation enrichment values follow.
# system tested: Hck (UniProt P08631)
# test details: phosphorylation enrichment, bacterial display (enrichment ratio); higher = better substrate or ligand; peptides without Tyr show the background
Give the figure only, with no unit attached.

Known results for sequences:
sequence chain: AEDKPYAELWT [MPI_Y46_M51T]
val: 1.13
--
sequence chain: VHNLDYYKMTT [FGFR3_Y647_K650M]
val: 0.547
--
sequence chain: GTQCSYLLSRK [UGT3A1_Y123]
val: 0.392
--
sequence chain: TSSSSYFDEPV [ARFGAP3_Y356]
val: 0.5
--
sequence chain: ALTDNYMFVVI [HAGH_Y61_L64V_YF]
val: 0.574

[in] Return reported phosphorylation enrichment. Input sequence: SYVVRYNQPRV [GRIN2D_Y736_M733V]
[out] 0.475

[in] Return reported phosphorylation enrichment. Input sequence: NFDLDYDSVQP [MYC_Y16_YF]
[out] 0.575

###

# system tested: EPHB1 (UniProt P54762)
# Sequence (P54762 whole entry, looked up): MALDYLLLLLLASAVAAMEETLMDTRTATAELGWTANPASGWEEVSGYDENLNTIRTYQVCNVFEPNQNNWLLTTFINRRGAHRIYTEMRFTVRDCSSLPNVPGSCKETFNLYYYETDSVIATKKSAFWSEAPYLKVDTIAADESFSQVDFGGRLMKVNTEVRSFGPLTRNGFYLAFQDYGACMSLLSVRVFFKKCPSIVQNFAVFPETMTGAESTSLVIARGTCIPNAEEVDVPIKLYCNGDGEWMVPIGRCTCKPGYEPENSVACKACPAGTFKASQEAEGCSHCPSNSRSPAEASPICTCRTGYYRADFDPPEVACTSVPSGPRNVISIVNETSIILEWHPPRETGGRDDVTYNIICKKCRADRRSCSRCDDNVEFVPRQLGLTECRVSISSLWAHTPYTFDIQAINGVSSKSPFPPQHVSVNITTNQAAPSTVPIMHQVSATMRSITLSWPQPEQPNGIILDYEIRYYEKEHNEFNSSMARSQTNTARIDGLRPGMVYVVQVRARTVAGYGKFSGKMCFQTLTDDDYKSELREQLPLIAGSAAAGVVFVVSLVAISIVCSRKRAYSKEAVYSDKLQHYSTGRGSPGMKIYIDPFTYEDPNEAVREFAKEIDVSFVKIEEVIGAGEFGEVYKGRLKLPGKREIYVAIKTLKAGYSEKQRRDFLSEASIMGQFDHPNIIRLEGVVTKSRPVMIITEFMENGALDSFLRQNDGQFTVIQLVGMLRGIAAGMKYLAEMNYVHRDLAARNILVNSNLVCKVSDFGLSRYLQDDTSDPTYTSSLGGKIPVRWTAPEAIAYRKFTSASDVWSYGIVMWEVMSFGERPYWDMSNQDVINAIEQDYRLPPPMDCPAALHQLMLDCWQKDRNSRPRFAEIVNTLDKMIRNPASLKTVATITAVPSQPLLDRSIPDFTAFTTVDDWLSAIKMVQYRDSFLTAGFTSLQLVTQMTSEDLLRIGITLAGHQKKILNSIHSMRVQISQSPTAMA
# test details: phosphorylation enrichment, bacterial display (enrichment ratio); higher = better substrate or ligand; peptides without Tyr show the background
Entries and their phosphorylation enrichment values follow.
Give the figure only, with no unit attached.

sequence chain: ALCHFYKLNII [ETV6_Y402_R399C_YF]
val: 0.607
--
sequence chain: CSSPTYRDCLQ [LARGE2_Y682_R677C]
val: 0.5

[in] Return reported phosphorylation enrichment. Input sequence: TGDRPYVCPFD [YY1_Y383]
[out] 0.474

[in] Return reported phosphorylation enrichment. Input sequence: GFVEDYRPPFY [ACVRL1_Y421_I417F]
[out] 0.495

[in] Return reported phosphorylation enrichment. Input sequence: STEVIYQPRRK [STK11_Y36]
[out] 0.437

[in] Return reported phosphorylation enrichment. Input sequence: RTEAQYRFIFM [PTPN11_Y511_Q506R_YF]
[out] 0.52

[in] Return reported phosphorylation enrichment. Input sequence: FTFDPYSEEEP [IL2RB_Y387_D391E_YF]
[out] 0.874

[in] Return reported phosphorylation enrichment. Input sequence: PQGVRYIYTID [DCX_Y103]
[out] 0.943

[in] Return reported phosphorylation enrichment. Input sequence: KNKNRYKNILP [PTPN11_Y279]
[out] 0.601

[in] Return reported phosphorylation enrichment. Input sequence: NYYDTYIKTCL [IQGAP2_Y1445]
[out] 5.9

[in] Return reported phosphorylation enrichment. Input sequence: GTHCHYKAPIV [FZD9_Y569_T573I]
[out] 0.513

[in] Return reported phosphorylation enrichment. Input sequence: TQPSPYAVFRF [RPGRIP1_Y823_YF]
[out] 2.6

[in] Return reported phosphorylation enrichment. Input sequence: PARLEYCENEK [IRS1_Y46_Y47C]
[out] 0.947

[in] Return reported phosphorylation enrichment. Input sequence: INMKKYCKKDF [NTN1_Y490_YF]
[out] 0.45

[in] Return reported phosphorylation enrichment. Input sequence: RVVVPYEPPEV [TP53_Y220_S215R]
[out] 0.523

[in] Return reported phosphorylation enrichment. Input sequence: LENSTYQYIRV [CRB1_Y760]
[out] 12.1
